- Test system: Nakaseomyces glabratus
- ASSAY: Antifungal activity against Candida glabrata MTCC 3019 after 24 hrs by well diffusion method
- Assay type: functional
- STATED CONDITIONS: MTCC 3019, 24 h
Provide the recorded MIC for the entries that follow.
Give bare numbers, in µg/mL.

// below: answered molecules
{"MOLECULE": "O=C(Cn1nc(C(F)(F)F)c2c(-c3ccccc3)c3ccccc3nc21)NCCN1CCNCC1", "QUANTITY NAME": "MIC", "RESULT UNITS": "µg/mL", "MEASURED RESULT": 15.6}
{"MOLECULE": "COc1ccc(NC(=O)Cn2nc(C(F)(F)F)c3c(-c4ccccc4)c4ccccc4nc32)cc1", "QUANTITY NAME": "MIC", "RESULT UNITS": "µg/mL", "MEASURED RESULT": 31.2}
{"MOLECULE": "Clc1ccc(COC(Cn2ccnc2)c2ccc(Cl)cc2Cl)c(Cl)c1 (centres undefined)", "QUANTITY NAME": "MIC", "RESULT UNITS": "µg/mL", "MEASURED RESULT": 7.8}

Please examine the following record next.
So what does the record say about MIC for `O=C(Cn1nc(C(F)(F)F)c2c(-c3ccccc3)c3ccccc3nc21)N1CCOCC1` ? 31.2

====

- System: Candida albicans
- ASSAY: Antifungal activity against Candida albicans MTCC 1637 after 24 hrs by well diffusion method
- Format: functional
- STATED CONDITIONS: MTCC 1637, 24 h
QUANTITY NAME: MIC (µg/mL)
Give bare numbers, in µg/mL.

// below: answered compounds
{"COMPOUND": "Clc1ccc(COC(Cn2ccnc2)c2ccc(Cl)cc2Cl)c(Cl)c1 (centres undefined) [MICONAZOLE]", "MEASURED RESULT": 7.8}
{"COMPOUND": "O=C(Cn1nc(C(F)(F)F)c2c(-c3ccccc3)c3ccccc3nc21)N1CCOCC1", "MEASURED RESULT": 62.5}
{"COMPOUND": "O=C(Cn1nc(C(F)(F)F)c2c(-c3ccccc3)c3ccccc3nc21)NCCN1CCNCC1", "MEASURED RESULT": 7.8}

So what does the record say about MIC for `COc1ccc(NC(=O)Cn2nc(C(F)(F)F)c3c(-c4ccccc4)c4ccccc4nc32)cc1` ? 62.5

====

Provide the recorded pIC50 for the entries that follow.
- Test system: HepG2
- ASSAY: Cytotoxicity against human HepG2 cells after 24 hrs by MTT assay
- Assay type: functional, cell-based
- STATED CONDITIONS: HepG2, 24 h
Numbers only, as −log10 of the molar value.

{"COMPOUND SMILES": "O=C(Cn1nc(C(F)(F)F)c2c(-c3ccccc3)c3ccccc3nc21)NCc1ccco1", "TARGET": "HepG2", "pIC50": 4.57}

Batch request: pIC50 per item, same order as input.
1. O=C(Cn1nc(C(F)(F)F)c2c(-c3ccccc3)c3ccccc3nc21)NC1CCCCC1
2. CNC(=O)Cn1nc(C(F)(F)F)c2c(-c3ccccc3)c3ccccc3nc21
3. O=C(Cn1nc(C(F)(F)F)c2c(-c3ccccc3)c3ccccc3nc21)N1CCCC1

4.52
4.65
4.48

====

- System: Candida albicans
- ASSAY: Antifungal activity against Candida albicans MTCC 854 after 24 hrs by well diffusion method
- Assay type: functional
- STATED CONDITIONS: MTCC 854, 24 h
Provide the recorded MIC for the entries that follow.
Answers are plain numbers, in µg/mL.

// below: answered compounds
{"COMPOUND": "COc1ccc(NC(=O)Cn2nc(C(F)(F)F)c3c(-c4ccccc4)c4ccccc4nc32)cc1", "MIC (µg/mL)": 31.2}
{"COMPOUND": "O=C(Cn1nc(C(F)(F)F)c2c(-c3ccccc3)c3ccccc3nc21)N1CCOCC1", "MIC (µg/mL)": 62.5}
{"COMPOUND": "Clc1ccc(COC(Cn2ccnc2)c2ccc(Cl)cc2Cl)c(Cl)c1 (centres undefined)", "MIC (µg/mL)": 7.8}

So what does the record say about MIC for `O=C(Cn1nc(C(F)(F)F)c2c(-c3ccccc3)c3ccccc3nc21)NCCN1CCNCC1` ? 15.6
